Biological target: T1, EsCas13d, nuclease-dead (Eubacterium siraeum, UniProt B0MS50, R295A;H300A;R849A;H854A)
T1 sequence: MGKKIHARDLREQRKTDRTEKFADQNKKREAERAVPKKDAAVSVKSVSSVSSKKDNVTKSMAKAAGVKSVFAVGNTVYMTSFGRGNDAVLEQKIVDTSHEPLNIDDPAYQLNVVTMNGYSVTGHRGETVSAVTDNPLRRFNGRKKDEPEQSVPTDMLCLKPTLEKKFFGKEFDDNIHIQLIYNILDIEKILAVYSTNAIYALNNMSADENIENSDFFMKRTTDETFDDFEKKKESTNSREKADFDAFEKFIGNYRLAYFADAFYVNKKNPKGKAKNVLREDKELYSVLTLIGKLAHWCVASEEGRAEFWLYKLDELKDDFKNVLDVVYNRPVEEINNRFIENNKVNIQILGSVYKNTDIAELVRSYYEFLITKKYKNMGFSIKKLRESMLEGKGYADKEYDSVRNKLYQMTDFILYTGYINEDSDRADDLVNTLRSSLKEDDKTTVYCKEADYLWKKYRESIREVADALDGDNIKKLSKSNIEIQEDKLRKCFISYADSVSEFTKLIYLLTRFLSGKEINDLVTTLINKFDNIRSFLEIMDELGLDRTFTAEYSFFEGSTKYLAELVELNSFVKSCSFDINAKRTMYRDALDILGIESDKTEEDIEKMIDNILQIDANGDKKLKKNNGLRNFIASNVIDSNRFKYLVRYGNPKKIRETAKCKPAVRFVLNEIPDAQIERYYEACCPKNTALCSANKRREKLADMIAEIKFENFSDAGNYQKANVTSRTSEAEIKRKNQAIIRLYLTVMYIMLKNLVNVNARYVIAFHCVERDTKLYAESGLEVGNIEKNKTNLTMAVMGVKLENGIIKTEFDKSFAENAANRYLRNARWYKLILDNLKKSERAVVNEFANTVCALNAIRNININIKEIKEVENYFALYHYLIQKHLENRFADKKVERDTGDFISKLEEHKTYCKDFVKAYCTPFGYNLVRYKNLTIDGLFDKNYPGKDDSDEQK
Assay: crRNA (strand 1, pre-loaded); Mg2+; 40 mM Tris-HCl pH 7.5, 150 mM NaCl, 6 mM MgCl2, 1 mM DTT, 0.1% Tween-20, 0.2 mg/ml BSA; 25 C; 10 min per concentration, then washed
Conditions: tags: His6-TwinStrep-SUMO cleaved; N-terminal SNAP kept (SNAP-Surface 488); label: 3' end held by stalled T7 RNA polymerase
For each record, write down the corresponding Kd.
One number for each entry, in nM.

// known answers, use as guide
{"BINDER": "target 1 U8C,G12A (mixed) RNA 1: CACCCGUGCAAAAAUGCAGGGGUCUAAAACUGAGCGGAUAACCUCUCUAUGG RNA 2: GGGAAUGGAUCCACAUCUACGAAUUCGUACCAUAGAGAGAUUACCCGCUCACCGAGAUCGGAAGAGCACACGU", "Kd [nM]": 12.5}
{"BINDER": "target 2 MT 5'PFS UAA 3'PFS CUG (mixed) RNA 1: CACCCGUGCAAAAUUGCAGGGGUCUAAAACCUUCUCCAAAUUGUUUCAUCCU RNA 2: GGGAAUGGAUCCACAUCUACGAAUUCUAAAGGAUGAAACAAUUUGGAGAAGCUGAGAUCGGAAGAGCACACGU", "Kd [nM]": 6.2}

List Kd for every entry below, keeping the order given.
1. target 2 MT 5'PFS CGA 3'PFS CUA (mixed) RNA 1: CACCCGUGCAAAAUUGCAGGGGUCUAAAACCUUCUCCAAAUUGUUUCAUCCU RNA 2: GGGAAUGGAUCCACAUCUACGAAUUCCGAAGGAUGAAACAAUUUGGAGAAGCUAAGAUCGGAAGAGCACACGU
2. target 1 insU 3' of 7,insC 3' of 5 (mixed) RNA 1: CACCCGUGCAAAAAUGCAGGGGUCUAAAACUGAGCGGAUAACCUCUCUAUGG RNA 2: GGGAAUGGAUCCACAUCUACGAAUUCGUACCAUAGAGAGGUUAUCUCGCCUCACCGAGAUCGGAAGAGCACACGU

stdout:
1: 8.3; 2: 12.5
